B1: ZNF193 (parent)
chain: QKRYHCKECGKVFSQSAGLIQHQR

variants of: B1; assay: protein stability index of a GFP-peptide fusion (GPS, HEK-293T) (PSI 1-6); higher = more stable; conditions: c terminus: a fixed tail appended;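 further: lentivirally expressed fusions sorted by FACS into six bins by GFP to DsRed ratio, PSI derived from sequencing read proportions per bin multiplied by bin number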
Catalogue of variants with associated protein stability index
Give only the figure.

ALTERATION	REPORTED_VALUE
R24C	4.52
Q21W	2.44
G10P	2.33
A17L	2.22
H5L	3.75
H22S	1.9

Indicate its recorded protein stability index; the variant in question is K7V
2.99

// fetch protein stability index given entry Q21H
2.88

Return value of protein stability index for input C9S , no commentary.
3.11

Give protein stability index for L19K
2.34

Fill in protein stability index for record Y4D
2.48
